Provenance of the data: paper PMC4363178

Target: PDZ1 domain of mouse ZO2 (M-ZO2PDZ1) (mouse) (UniProt Q9Z0U1)
Sequence (Q9Z0U1 1-104): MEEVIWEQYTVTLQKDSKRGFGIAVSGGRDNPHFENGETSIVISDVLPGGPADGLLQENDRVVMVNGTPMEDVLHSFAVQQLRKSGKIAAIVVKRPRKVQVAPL
Test: NMR titration
attribute_measured: Kd (µM)

substance="mutant PMP22 C-terminal peptide PMP22-M1 (ILRKREYV)" attribute_measured=Kd unit_descriptor=µM reported_result=150
